organism: Rattus norvegicus; assay: Open TG-GATES - Regimen: Single; type: toxicity, organism-based, Sprague-Dawley; design: regimen Single, gender Male, age 6 weeks; settings: in vivo, po, 100 mg/kg, 24 h, tissue Plasma, route gavage, dose level Low
OBSERVED PROPERTY: CRE (mg/dL)
Give just the numeric value; mg/dL need not be written.

Look at this molecule and give its reported CRE. CN(C)CCC=C1c2ccccc2COc2ccccc21 [DOXEPIN]
0.2

// repeat for O=NN1CCOCC1 [N-NITROSOMORPHOLINE] and report
0.2

One more molecule: CN(C)C(=N)N=C(N)N [METFORMIN]
0.2

Further, for CCC1(c2ccccc2)C(=O)NC(=O)NC1=O [PHENOBARBITAL] ?
0.4
